# System: HIV
# Assay details: MT4 assay: antiviral HIV activity (cell protection, cell titer glo readout at 96 hours)
# Assay type: cell-based
# Test context: Human immunodeficiency virus 1, MT4, 96 h, MT4 cells, cell titer glo readout at 96 hours, 10 point dose response; read-out: HIV MT4 Assay IC50
Parameter measured: IC50 (nM)

Below, 5 compounds whose answers are already recorded.
Query string: Report value only: IC50, HIV, Cc1nc2c(cc(-c3ccnc(N4C[C@@H]5CC[C@@H](C5)C4)c3)n2C)c(-c2cc(F)c3c(c2C)CCCO3)c1[C@H](OC(C)(C)C)C(=O)O (atropisomer, axis not shown)
Result string: 27.5

Query string: Specify IC50 for Cc1nc2c(cc(C(=S)N3CCC(c4ccccc4)CC3)n2C)c(-c2cc(F)c3c(c2C)CCCO3)c1[C@H](OC(C)(C)C)C(=O)O (atropisomer, axis not shown; (M)) , system HIV.
Result string: 38.3

Query string: Given Cc1nc2c(cc(CN3CCC[C@H](NC(=O)c4ccc5c(cnn5C)c4)C3)n2C)c(-c2cc(F)c3c(c2C)CCCO3)c1[C@H](OC(C)(C)C)C(=O)O , report its IC50 on HIV.
Result string: 38.6

Query string: Fetch value of IC50 on HIV for Cc1nc2c(cc(C(=O)NCC3CCCCC3)n2C)c(-c2cc(F)c3c(c2C)CCCO3)c1[C@H](OC(C)(C)C)C(=O)O .
Result string: 4.3

Query string: Provide IC50, system HIV, entry Cc1nc2c(cc(-c3nc(N4CCC4)ns3)n2C)c(-c2cc(F)c3c(c2C)CCCO3)c1[C@H](OC(C)(C)C)C(=O)O
Result string: 12.9

(a) Cc1nc2c(cc(C(=O)NCc3ccc(N(C)C)cc3)n2C)c(-c2cc(F)c3c(c2C)CCCO3)c1[C@H](OC(C)(C)C)C(=O)O
(b) Cc1nc2c(cc(CCc3ccncc3)n2C)c(-c2cc(F)c3c(c2C)CCCO3)c1[C@H](OC(C)(C)C)C(=O)O
Query string: Given the listed records, identify the one among a and b with higher IC50. Identify your pick by its label.
Result string: b
